Measured log10 Ki by item
- measured_on: CDK7/cyclinH/MAT1 trimeric complex (Homo sapiens, UniProt P50613)
- Sequence (P50613 whole entry): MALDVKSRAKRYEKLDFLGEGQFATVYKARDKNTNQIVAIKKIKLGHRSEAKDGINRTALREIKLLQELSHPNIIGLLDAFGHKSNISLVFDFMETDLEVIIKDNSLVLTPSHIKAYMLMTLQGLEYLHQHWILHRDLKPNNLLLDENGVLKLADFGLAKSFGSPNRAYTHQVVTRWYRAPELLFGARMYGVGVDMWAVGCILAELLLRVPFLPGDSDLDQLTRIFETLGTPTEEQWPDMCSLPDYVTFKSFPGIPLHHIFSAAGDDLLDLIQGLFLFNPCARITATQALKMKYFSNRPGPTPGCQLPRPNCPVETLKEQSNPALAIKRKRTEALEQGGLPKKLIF
- Sequence (P51946 whole entry partner): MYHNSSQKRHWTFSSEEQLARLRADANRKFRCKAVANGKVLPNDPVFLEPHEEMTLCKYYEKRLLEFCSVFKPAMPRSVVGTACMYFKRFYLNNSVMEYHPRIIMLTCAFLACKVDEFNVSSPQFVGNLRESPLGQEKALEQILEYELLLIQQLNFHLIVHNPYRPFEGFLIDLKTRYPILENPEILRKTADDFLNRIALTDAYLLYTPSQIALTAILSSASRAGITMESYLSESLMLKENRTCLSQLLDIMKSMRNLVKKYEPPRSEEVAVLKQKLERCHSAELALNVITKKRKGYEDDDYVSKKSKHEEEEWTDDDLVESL
- Sequence (P51948 whole entry partner): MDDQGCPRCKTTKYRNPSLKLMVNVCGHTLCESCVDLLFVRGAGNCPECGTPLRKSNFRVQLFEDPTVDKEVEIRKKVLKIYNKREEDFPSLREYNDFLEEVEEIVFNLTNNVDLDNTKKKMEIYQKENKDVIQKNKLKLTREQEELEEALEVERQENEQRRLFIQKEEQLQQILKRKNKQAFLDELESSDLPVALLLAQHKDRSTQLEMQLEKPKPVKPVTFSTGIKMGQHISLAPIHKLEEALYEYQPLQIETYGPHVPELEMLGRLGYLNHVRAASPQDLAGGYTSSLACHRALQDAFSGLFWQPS
- protocol_notes: In vitro CDK7 assay, potency of irreversible covalent inhibitors (kinact/KI), coupled PK/LDH ADP readout at 340 nm
- assay_setup: CDK7 (20 nM enz.) (KI, μM), 20 nM enzyme
On a log10 scale: recorded Ki, unit µM.

For orientation, consider the following solved cases.
C=CC(=O)N1CC(N2CCC(c3ccc4c(c3)Nc3nccc(C5CCOCC5)c3CO4)CC2)C1; -1.61
CC#CC(=O)N1CC(N2CCC(c3cc4c(c(C)n3)O[C@H](C)c3c(N5CCOCC5)ccnc3N4)CC2)C1 (single isomer, unassigned) [Compound 370]; -0.95
C#CCCN(C)C/C=C/C(=O)N1CC(N2CCC(c3ccc4c(c3)Nc3nccc(C5CCOCC5)c3C(C)O4)CC2)C1 (stereo not shown); -1.56

# log10 Ki lookup, item C=CC(=O)N1CCC(N2CC(c3cc4c(c(C(F)(F)F)c3)OCc3c(-c5cnn(C)c5)ccnc3N4)C2)CC1
-1.57
